test system: ASPC-1; experiment: Cell proliferation assay, ASPC-1 cells; assay type: cell-based; conditions: Homo sapiens, ASPC1, KRAS-G12D, antiproliferative
Please respond with reported IC50 for every item in the list.

The following molecules have reported results that may help.
1) C#Cc1c(F)ccc2cc(O)cc(-c3ncc4c(N5C[C@H]6CC[C@@H](C5)N6)nc(N5CCCN(CCOCCNc6cccc7c6C(=O)N(C6CCC(=O)NC6=O)C7=O)CC5)nc4c3F)c12 (stereo partly drawn) [Compound 26a] ... > 10 µM
2) C#Cc1c(F)ccc2cc(O)cc(-c3ncc4c(N5C[C@H]6CC[C@@H](C5)N6)nc(N5CCCN(CCCCCC(=O)N[C@H](C(=O)N6C[C@H](O)C[C@H]6C(=O)N[C@@H](C)c6ccc(-c7scnc7C)cc6)C(C)(C)C)CC5)nc4c3F)c12 [Compound 26b] ... 5.09 µM

Please look at the following molecule next.
Ask | For the molecule C#Cc1c(F)ccc2cc(O)cc(-c3ncc4c(N5CC6CCC(C5)N6)nc(OC[C@@]56CCCN5C[C@H](F)C6)nc4c3F)c12 [MRTX1133, reference compound] , what IC50 is on record?
Reply | < 0.1 µM

Data origin: paper PMC12114952
